Provenance of the data: PubChem BioAssay (NCI)

Recorded TGI, one value per entry.
tested on: SF-268 CNS; test: NCI tumour cell line growth inhibition, 48 h
measured.metric: TGI

compound	measured.metric	value.reported
CC(=O)OC1CC2C(=O)C(=O)C1(C)C2(C)C (centres undefined)	TGI	> 100 µM
CSc1ccc(/C=C2\N=C(c3ccccc3)N(/N=C/c3cc4cc(C)ccc4nc3Cl)C2=O)cc1	TGI	47.6 µM
NS(=O)(=O)c1ccc(NNc2c3ccccc3nc3c(C(=O)Nc4ccc(S(=O)(=O)Nc5ncccn5)cc4)cccc23)cc1	TGI	> 25 µM
S=c1nc(-c2ccnc(-c3nc(=S)[nH][nH]3)c2)[nH][nH]1	TGI	> 100 µM

* * *

system: IGROV1 ovarian; test: NCI tumour cell line growth inhibition, 48 h
Recorded TGI, one value per entry.

molecule	TGI
CC(NC(=O)c1ccccc1)(C(=O)O)C(=O)O	> 100 µM
CC(=O)Nc1cc(Nc2cc(=O)[nH]c(=O)[nH]2)ccc1C	> 100 µM
Nc1nc(Cl)cc(NCC2(O)CCCC2)n1	> 100 µM
COC(=O)c1c(-c2ccc(Cl)cc2)cc2c3ccccc3n(C)c2c1C(=O)OC	> 100 µM
CC1=C(C(=O)Nc2ccc(Cl)c(Cl)c2)C(c2ccccc2O)NC(=O)N1 (stereo not drawn)	> 50 µM
CCOP(=O)(Nc1ccc2oc(=O)c3ccccc3c2c1)OCC	> 100 µM
Cc1ccc(/C(O)=C/c2nc3ccc([N+](=O)[O-])cc3nc2/C=C(\O)c2ccc(C)cc2)cc1	> 100 µM
O=C(Cc1csc2nc(-c3ccc(Br)cc3)cn12)N/N=C/c1ccc(O)cc1	39.7 µM

* * *

tested on: SF-268 CNS; test: NCI tumour cell line growth inhibition, 48 h
measured.metric: TGI

compound	measurement.target	measured.metric	value.reported
CC(=O)Nc1cc(Nc2cc(=O)[nH]c(=O)[nH]2)ccc1C	SF-268 CNS	TGI	> 100 µM
CC(=O)C1C(=O)N(C(C)C)C[C@@H]2CCC(=O)C[C@H]12 (stereo partly specified)	SF-268 CNS	TGI	> 100 µM
Cc1ccc(S(=O)(=O)n2cc(C#N)c(C#N)c2)cc1	SF-268 CNS	TGI	69.2 µM
O=C(c1ccco1)N(C(=S)OC12CC3CC(CC(C3)C1)C2)c1ccccc1	SF-268 CNS	TGI	> 100 µM
CC1(C)CC[C@]2(C(N)=O)CC[C@]3(C)C(=CC[C@@H]4[C@@]5(C)C/C(=C/c6ccncc6)C(=O)C(C)(C)[C@@H]5CC[C@]43C)[C@@H]2C1	SF-268 CNS	TGI	5.49 µM
Cc1ccc(/C(O)=C/c2nc3ccc([N+](=O)[O-])cc3nc2/C=C(\O)c2ccc(C)cc2)cc1	SF-268 CNS	TGI	> 100 µM

* * *

Recorded TGI, one value per entry.
tested on: MDA-MB-231 breast; test: NCI tumour cell line growth inhibition, 48 h

molecule	measurement.target	comparator	TGI / µM
CSc1ccc(C(=O)C(=O)c2ccc(SC)s2)s1	MDA-MB-231 breast	>	10
Cc1cc(Cl)ccc1Nc1nc(C(F)(F)F)ccc1C(=O)N1CCN(c2cccc(Cl)c2)CC1	MDA-MB-231 breast	>	100
COC(=O)c1c(-c2ccc(Cl)cc2)cc2c3ccccc3n(C)c2c1C(=O)OC	MDA-MB-231 breast	>	100
Nc1ccc2c(c1)c(N)nn2C(=O)Nc1ccc(Cc2ccccc2)cc1	MDA-MB-231 breast	=	22.7
CCOC(=O)c1cnccc1CC1(C#N)c2ccccc2C=CN1C(=O)c1ccccc1 (stereo unspecified)	MDA-MB-231 breast	>	100
C(/Cc1ccc2c(c1)OCO2)=N\NC1=NCCCN1	MDA-MB-231 breast	>	100
COc1ccc(CCN2CCc3c(C)c(C#N)c4nc5ccccc5n4c32)cc1OC	MDA-MB-231 breast	=	86.1
CO[C@H]1C[C@H](O[C@H]2CC[C@]3(C=O)[C@H]4CC[C@]5(C)[C@@H](C6=CC(=O)OC6)CC[C@]5(O)[C@@H]4CC[C@]3(O)C2)O[C@H](C)[C@H]1O	MDA-MB-231 breast	=	5.34
Cc1nc(N)nc2ccccc12	MDA-MB-231 breast	>	100
CC1OC2OC3C(OCC(O)C3O)OC(=O)[C@]34CCC(C)(C)CC3C3=CCC5[C@@]6(C)C[C@H](O)[C@H](OC7OC(CO)C(O)C(O)C7OC7OCC(OC(=O)CC(C)(O)CC(=O)OC1C(OC1OC(CO)C(O)C(O)C1O)C2O)C(O)C7O)[C@@](C)(CO)C6CC[C@@]5(C)[C@]3(C)CC4 (stereo partly specified)	MDA-MB-231 breast	=	21.1
O=c1c2ccccc2oc2ccc(OCCCCCCN3CCCCCC3)cc12	MDA-MB-231 breast	=	13
O=C1CC(n2cccc2)c2c(Br)sc(Br)c21 (stereo unspecified)	MDA-MB-231 breast	=	30.9
Cc1ccc(C(C)C)cc1NC(=O)Nc1ccc([N+](=O)[O-])cc1	MDA-MB-231 breast	=	3.65
C=[CH][Sn]([CH]=C)([O]c1cccc2cccnc12)[O]c1cccc2cccnc12	MDA-MB-231 breast	=	36.9
CSC1=NCC2(S1)c1ccccc1N(C(=O)OC(C)(C)C)C2N1CCCCC1 (stereo unspecified)	MDA-MB-231 breast	>	100
COC(=O)CCCC(=O)NC1=C(NCc2ccccc2)C(=O)c2ccccc2C1=O	MDA-MB-231 breast	>	100
